Test system: Plasmodium berghei
Assay: Luciferase/luciferin-expressing antifolate-resistant parasites were used to infect a culture of HepG2 cells that were pre-incubated with compounds. Infected hepatocytes emit light due to the luciferase reaction. Assay results are presented as the percent inhibition of light emission compared to control. […]
Format: functional
Details: sporozoite, HEPG2TOX_HILL_SLOPE 1.06, HEPG2TOX_R_SQUARED 0.661, read-out: LUCIFERASE INFECTION ASSAY - IC50
pIC50: −log10 of the molar value.
readout: pIC50

# compound, test target, readout, result
data = [
    ("COc1ccc(CO/N=C/NC(=O)C(c2ccc(Cl)cc2)c2nc3ccccc3nc2C(F)(F)F)cc1 (stereo unspecified)", "Plasmodium berghei", "pIC50", "< 5.20"),
]
